Molecular target: Pseudomonas aeruginosa LpxC enzyme (Pseudomonas aeruginosa, UniProt P47205)
Construct: made in house; host or cells: E. coli
Sequence (P47205 1-303): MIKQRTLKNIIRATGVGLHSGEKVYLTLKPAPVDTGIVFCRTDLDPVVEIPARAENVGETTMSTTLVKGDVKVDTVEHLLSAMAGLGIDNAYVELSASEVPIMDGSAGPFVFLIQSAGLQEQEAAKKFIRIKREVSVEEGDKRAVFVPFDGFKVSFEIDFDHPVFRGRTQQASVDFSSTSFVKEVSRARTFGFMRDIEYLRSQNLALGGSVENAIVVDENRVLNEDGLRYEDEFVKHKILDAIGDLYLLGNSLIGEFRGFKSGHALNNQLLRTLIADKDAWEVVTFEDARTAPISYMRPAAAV
Experiment: IC50 assay, LpxC enzyme from P. aeruginosa (BioTrove RapidFire mass spectrometry)
Format: biochemical
Conditions: P. aeruginosa LpxC enzyme 0.1 nM, 25° C., 1 hour, pH 8.0; read-out: PA: IC50
pIC50: −log10 of the molar value.
Give TRUE when the value for pIC50 is at least 8. Give FALSE when it is less.

Determine whether this compound has pIC50 no lower than 8: CC(CCn1cc(-c2cccc(C#N)c2)cn1)(C(=O)NO)S(C)(=O)=O (stereo not shown) FALSE

Determine whether this compound has pIC50 no lower than 8: CC(CCn1cc(-c2ccccc2C#N)cn1)(C(=O)NO)S(C)(=O)=O (stereo not shown) FALSE

Determine whether this compound has pIC50 no lower than 8: `C[C@@](CCn1cc(C2CCCCC2)cn1)(C(=O)NO)S(C)(=O)=O` TRUE

Determine whether this compound has pIC50 no lower than 8: CC(CCn1cc(-c2ccc3c(c2)CCO3)cn1)(C(=O)NO)S(C)(=O)=O (stereo not shown) TRUE

Determine whether this compound has pIC50 no lower than 8: Cc1ccc(C)c(OCc2cn(CCC(C)(C(=O)NO)S(C)(=O)=O)nn2)c1 (stereo not shown) FALSE

Proceed to the following item.
Determine whether this compound has pIC50 no lower than 8: COc1ccc(-c2cnn(CCC(C)(C(=O)NO)S(C)(=O)=O)c2)cc1F (stereo not shown) FALSE

###

target: Pseudomonas aeruginosa LpxC enzyme (Pseudomonas aeruginosa, UniProt P47205); construct: made in house; host or cells: E. coli; experiment: IC50 assay, LpxC enzyme from P. aeruginosa (BioTrove RapidFire mass spectrometry); assay type: biochemical; details: P. aeruginosa LpxC enzyme 0.1 nM, 25° C., 1 hour, pH 8.0; read-out: PA: IC50
Record form. Attribute: IC50. Fill in for each entry.
Answers are plain numbers, in nM.

Okay, here is my list. What is IC50 for each of these?
1. CSc1cccc(OCc2cn(CCC(C)(C(=O)NO)S(C)(=O)=O)nn2)c1 (centres unmarked)
2. COc1cccc(-c2cnn(CCC(C)(C(=O)NO)S(C)(=O)=O)c2)c1 (centres unmarked)
3. C[C@@](CCn1cc(-c2ccc(-c3ncco3)cc2)cn1)(C(=O)NO)S(C)(=O)=O
4. CC(CCn1cc(-c2ccc3cc(C(N)=O)[nH]c3c2)cn1)(C(=O)NO)S(C)(=O)=O (centres unmarked)
5. Cn1nccc1-c1ccc(-c2cnn(CCC(C)(C(=O)NO)S(C)(=O)=O)c2)cc1 (centres unmarked)
6. CC(CCn1cc(-c2cc(F)ccc2F)cn1)(C(=O)NO)S(C)(=O)=O (centres unmarked)
7. CC(CCn1cc(-c2ccc3cnc(N)cc3c2)cn1)(C(=O)NO)S(C)(=O)=O (centres unmarked)
8. Cc1c(F)cccc1-c1cnn(CCC(C)(C(=O)NO)S(C)(=O)=O)c1 (centres unmarked)

6.39
7.3
0.963
14.5
3.29
6.75
2.57
9.28

###

Biological target: Pseudomonas aeruginosa LpxC enzyme (Pseudomonas aeruginosa, UniProt P47205)
Construct: made in house; host or cells: E. coli
Assay: IC50 assay, LpxC enzyme from P. aeruginosa (BioTrove RapidFire mass spectrometry)
Type: biochemical
Settings: P. aeruginosa LpxC enzyme 0.1 nM, 25° C., 1 hour, pH 8.0; read-out: PA: IC50
Description: In order to assess the compounds biological activity, selected in-vitro assays were conducted on selected compounds of Formula I. One of the assays measured the compounds ability to disrupt the synthesis of lipopolysaccharide, LPS, which is a component of the outer membrane of Gram-negative bacteria. Disruption of this synthesis is lethal to the bacteria. The assay determined the compound's ability to inhibit LpxC, which is the first enzyme in the biosynthetic pathway for LPS (measured as IC50). […]
experimental-endpoint: IC50 (nM)
Numbers only, in nM.

Okay, here is my list. What is IC50 for each of these?
1. Cc1nn(CC[C@](C)(C(=O)NO)S(C)(=O)=O)cc1-c1ccccc1 [Example 4]
2. Cc1c(-c2ccccc2)nnn1CC[C@](C)(C(=O)NO)S(C)(=O)=O [Example 15]
3. CC(CCn1cc(-c2cccc(-c3cc(N)[nH]n3)c2)cn1)(C(=O)NO)S(C)(=O)=O (stereo not drawn) [Example 85]

1. 14.6
2. 21.3
3. 58.9

###

Target: Pseudomonas aeruginosa LpxC enzyme (Pseudomonas aeruginosa)
Construct: made in house; host or cells: E. coli
Sequence (P47205 1-303): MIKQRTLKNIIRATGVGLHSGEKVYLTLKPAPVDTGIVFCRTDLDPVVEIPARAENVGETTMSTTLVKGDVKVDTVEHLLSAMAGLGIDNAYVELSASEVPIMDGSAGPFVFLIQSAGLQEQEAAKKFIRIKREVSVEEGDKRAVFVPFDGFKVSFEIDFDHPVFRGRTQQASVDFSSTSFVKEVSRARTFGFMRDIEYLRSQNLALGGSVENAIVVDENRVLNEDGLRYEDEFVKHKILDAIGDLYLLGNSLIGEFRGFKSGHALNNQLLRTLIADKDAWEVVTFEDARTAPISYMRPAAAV
Assay: IC50 assay, LpxC enzyme from P. aeruginosa (BioTrove RapidFire mass spectrometry)
Type: biochemical
Conditions: P. aeruginosa LpxC enzyme 0.1 nM, 25° C., 1 hour, pH 8.0; read-out: PA: IC50
pIC50: −log10 of the molar value.
Give yes (1) when the value for pIC50 is at least 8. Give no (0) when it is less.

Answered examples (3):
Determine whether this compound has pIC50 no lower than 8: CC(C)(C)c1ccccc1SCc1cn(CCC(C)(C(=O)NO)S(C)(=O)=O)nn1 (stereo not shown) no (0)

Determine whether this compound has pIC50 no lower than 8: CCOc1ccc(-c2cnn(CCC(C)(C(=O)NO)S(C)(=O)=O)c2)cc1C#N (stereo not shown) no (0)

Determine whether this compound has pIC50 no lower than 8: CC(CCn1cc(-c2ccc3c(c2)C(=O)CC3)cn1)(C(=O)NO)S(C)(=O)=O (stereo not shown) no (0)

***
Determine whether this compound has pIC50 no lower than 8: CC(CCn1cc(COc2cccc3ccccc23)nn1)(C(=O)NO)S(C)(=O)=O (stereo not shown) no (0)

Determine whether this compound has pIC50 no lower than 8: CC(CCn1cc(-c2ccc(-c3cnco3)cc2)cn1)(C(=O)NO)S(C)(=O)=O (stereo not shown) yes (1)

Determine whether this compound has pIC50 no lower than 8: `C[C@@](CCn1cc(-c2ccc(F)c(F)c2F)nn1)(C(=O)NO)S(C)(=O)=O` yes (1)

Determine whether this compound has pIC50 no lower than 8: CC(CCn1cc(-c2ccccc2F)cn1)(C(=O)NO)S(C)(=O)=O (stereo not shown) yes (1)

###

Record form. Attribute: pIC50. Fill in for each entry.
biological target: Pseudomonas aeruginosa LpxC enzyme (Pseudomonas aeruginosa); construct: made in house; host or cells: E. coli; experiment: IC50 assay, LpxC enzyme from P. aeruginosa (BioTrove RapidFire mass spectrometry); type: biochemical; conditions: P. aeruginosa LpxC enzyme 0.1 nM, 25° C., 1 hour, pH 8.0; read-out: PA: IC50
Answers are plain numbers, as −log10 of the molar value.

Worked cases, pIC50 given:
The compound listed as CC(CCn1cc(CSc2ccc(Br)cc2)nn1)(C(=O)NO)S(C)(=O)=O (stereo not drawn) [Example 25] has a reported pIC50 of 8.00

The compound listed as C[C@@](CCn1cc(C2CCCC2)cn1)(C(=O)NO)S(C)(=O)=O [Example 3] has a reported pIC50 of 7.84

The compound listed as CC(CCn1cc(CSc2cccc(Cl)c2)nn1)(C(=O)NO)S(C)(=O)=O (stereo not drawn) [Example 27] has a reported pIC50 of 7.91

Okay, here is my list. What is pIC50 for each of these?
1. C[C@@](CCn1cc(-c2nc3ccccc3o2)cn1)(C(=O)NO)S(C)(=O)=O [Example 10]
2. CC(CCn1cc(COc2ccc(C(F)(F)F)cc2)nn1)(C(=O)NO)S(C)(=O)=O (stereo not drawn) [Example 33]

1. 7.86
2. 8.02

Okay, here is my list. What is pIC50 for each of these?
1. Cc1cc(-c2ccc(-c3cnn(CCC(C)(C(=O)NO)S(C)(=O)=O)c3)cc2)[nH]n1 (stereo not drawn) [Example 84]
2. Cc1ccc2cc(-c3cnn(CCC(C)(C(=O)NO)S(C)(=O)=O)c3)ccc2n1 (stereo not drawn) [Example 67]
3. Cc1cccc(-c2cnn(CCC(C)(C(=O)NO)S(C)(=O)=O)c2)c1 (stereo not drawn) [Example 42]
4. Cc1ccc(-c2cnn(CCC(C)(C(=O)NO)S(C)(=O)=O)c2)cc1 (stereo not drawn) [Example 41]
5. C[C@@](CCn1cc(C#Cc2cccc(C#N)c2)cn1)(C(=O)NO)S(C)(=O)=O [Example 11]
6. CC(CCn1cc(-c2ccc(F)cc2F)cn1)(C(=O)NO)S(C)(=O)=O (stereo not drawn) [Example 55]

1: 8.19; 2: 7.92; 3: 8.21; 4: 8.90; 5: 7.92; 6: 8.68

Okay, here is my list. What is pIC50 for each of these?
1. CC(CCn1cc(-c2ccccc2Br)nn1)(C(=O)NO)S(C)(=O)=O (stereo not drawn) [Example 38]
2. CC(C)(C)c1cccc(OCc2cn(CCC(C)(C(=O)NO)S(C)(=O)=O)nn2)c1 (stereo not drawn) [Example 35]
3. CC(CCn1cc(-c2cccc(O)c2)cn1)(C(=O)NO)S(C)(=O)=O (stereo not drawn) [Example 44]
4. CC(CCn1cc(-c2ccc(-c3cc[nH]n3)cc2)cn1)(C(=O)NO)S(C)(=O)=O (stereo not drawn) [Example 70]
5. CC(CCn1cc(-c2ccc(C(F)(F)F)nc2)cn1)(C(=O)NO)S(C)(=O)=O (stereo not drawn) [Example 77]

[7.72, 7.62, 7.68, 8.39, 7.71]
